Values were extracted from the supplement of paper PMC7877785.

- Assay info: self-splicing fitness, log relative to wild type (ln ratio); higher = more splicing; Tetrahymena group I intron in knt gene, E. coli kanamycin selection, DiMSum; sequences stand for … in CUCUCU…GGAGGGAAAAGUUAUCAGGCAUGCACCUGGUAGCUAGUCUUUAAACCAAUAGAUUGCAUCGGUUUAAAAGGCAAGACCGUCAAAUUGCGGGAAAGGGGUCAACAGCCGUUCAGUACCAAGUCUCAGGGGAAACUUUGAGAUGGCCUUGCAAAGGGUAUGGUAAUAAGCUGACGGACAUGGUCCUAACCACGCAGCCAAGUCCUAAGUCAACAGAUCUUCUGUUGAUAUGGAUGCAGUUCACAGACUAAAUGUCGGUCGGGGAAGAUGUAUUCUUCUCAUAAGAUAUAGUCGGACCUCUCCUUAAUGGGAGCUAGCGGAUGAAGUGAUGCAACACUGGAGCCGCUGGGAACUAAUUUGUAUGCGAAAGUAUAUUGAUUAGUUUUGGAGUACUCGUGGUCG;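 also: selection with 25 µg/mL kanamycin versus none on LB agar overnight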
- Condition label: 37 °C

[
  {
    "Chain sequence": "CAGAAGCAAUAUUACGGACC",
    "self-splicing fitness (ln)": -2.5
  },
  {
    "Chain sequence": "CUAAAGCAAUAUUACGAUGG",
    "self-splicing fitness (ln)": 0.0185
  },
  {
    "Chain sequence": "CGCGAGCAAUAUUACGGUAA",
    "self-splicing fitness (ln)": -1.58
  },
  {
    "Chain sequence": "UUAGAGCAAUAUUACGAGAU",
    "self-splicing fitness (ln)": -2.03
  },
  {
    "Chain sequence": "UAACAGCAAUAUUACGCUAU",
    "self-splicing fitness (ln)": -1.82
  },
  {
    "Chain sequence": "UCUCAGCAAUAUUACGGUGU",
    "self-splicing fitness (ln)": -1
  },
  {
    "Chain sequence": "CAAUAGCAAUAUUACGUUGU",
    "self-splicing fitness (ln)": -2.12
  },
  {
    "Chain sequence": "UCUAAGCAAUAUUACGGGAU",
    "self-splicing fitness (ln)": -2.67
  },
  {
    "Chain sequence": "GCUUAGCAAUAUUACGCUCA",
    "self-splicing fitness (ln)": -0.203
  },
  {
    "Chain sequence": "GCAAAGCAAUAUUACGACGG",
    "self-splicing fitness (ln)": -1.2
  },
  {
    "Chain sequence": "GCCCAGCAAUAUUACGUCGC",
    "self-splicing fitness (ln)": -0.355
  },
  {
    "Chain sequence": "CACGAGCAAUAUUACGAUAU",
    "self-splicing fitness (ln)": -2.19
  },
  {
    "Chain sequence": "UAAAAGCAAUAUUACGCCGG",
    "self-splicing fitness (ln)": 0.0922
  },
  {
    "Chain sequence": "CUAGAGCAAUAUUACGACAU",
    "self-splicing fitness (ln)": -2.71
  },
  {
    "Chain sequence": "UGAGAGCAAUAUUACGACAG",
    "self-splicing fitness (ln)": -3.07
  },
  {
    "Chain sequence": "UCAGAGCAAUAUUACGUCUA",
    "self-splicing fitness (ln)": -2.35
  }
]

###

- Assay info: self-splicing fitness, log relative to wild type (ln ratio); higher = more splicing; Tetrahymena group I intron in knt gene, E. coli kanamycin selection, DiMSum; sequences stand for … in CUCUCU…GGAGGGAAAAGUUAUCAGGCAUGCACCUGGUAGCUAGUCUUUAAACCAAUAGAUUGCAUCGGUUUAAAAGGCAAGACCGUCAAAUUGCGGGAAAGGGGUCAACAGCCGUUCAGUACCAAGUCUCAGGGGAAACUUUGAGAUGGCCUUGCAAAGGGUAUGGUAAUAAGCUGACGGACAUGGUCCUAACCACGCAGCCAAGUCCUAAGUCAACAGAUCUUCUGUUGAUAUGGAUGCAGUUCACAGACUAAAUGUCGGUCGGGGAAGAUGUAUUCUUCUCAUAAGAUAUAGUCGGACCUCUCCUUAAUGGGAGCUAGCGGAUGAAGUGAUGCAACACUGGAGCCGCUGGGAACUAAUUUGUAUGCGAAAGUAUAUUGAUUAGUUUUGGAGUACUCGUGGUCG
- Condition label: 37 °C

[
  {
    "Chain sequence": "UGUCAGCAAUAUUACGCUAU",
    "self-splicing fitness (ln)": -1.3
  },
  {
    "Chain sequence": "UAGGAGCAAUAUUACGGGAU",
    "self-splicing fitness (ln)": -2.27
  },
  {
    "Chain sequence": "AAUUAGCAAUAUUACGCGUA",
    "self-splicing fitness (ln)": -0.804
  },
  {
    "Chain sequence": "GCUGAGCAAUAUUACGGUAC",
    "self-splicing fitness (ln)": -2.77
  },
  {
    "Chain sequence": "GGGGAGCAAUAUUACGCUUC",
    "self-splicing fitness (ln)": -2.12
  },
  {
    "Chain sequence": "AUGUAGCAAUAUUACGCAUA",
    "self-splicing fitness (ln)": -1.85
  },
  {
    "Chain sequence": "UAUUAGCAAUAUUACGCCUU",
    "self-splicing fitness (ln)": -0.885
  },
  {
    "Chain sequence": "UGCGAGCAAUAUUACGGGAG",
    "self-splicing fitness (ln)": -2.61
  },
  {
    "Chain sequence": "UGGCAGCAAUAUUACGUUAG",
    "self-splicing fitness (ln)": 0.37
  },
  {
    "Chain sequence": "UUCCAGCAAUAUUACGUUCC",
    "self-splicing fitness (ln)": -1.84
  },
  {
    "Chain sequence": "CAAAAGCAAUAUUACGAAAC",
    "self-splicing fitness (ln)": -3.75
  },
  {
    "Chain sequence": "GACCAGCAAUAUUACGCCCG",
    "self-splicing fitness (ln)": -0.754
  },
  {
    "Chain sequence": "AAGCAGCAAUAUUACGUAUC",
    "self-splicing fitness (ln)": -1.62
  },
  {
    "Chain sequence": "AUGUAGCAAUAUUACGCCUA",
    "self-splicing fitness (ln)": 0.198
  },
  {
    "Chain sequence": "AAUGAGCAAUAUUACGAGCA",
    "self-splicing fitness (ln)": -2.35
  },
  {
    "Chain sequence": "GAGGAGCAAUAUUACGGCAU",
    "self-splicing fitness (ln)": -1.87
  }
]
